The reported measurements were obtained from the Immune Epitope Database (IEDB).

target: HLA-B*51:01; experiment: IEDB peptide-MHC binding, purified MHC/direct/fluorescence; filed as Kd, often an IC50 or EC50 that approximates it; bounds were set here for any values at or beyond the usual limits of such assays; settings: source organism: West Nile virus
pKd: −log10 of the molar value.
READOUT: pKd

Recorded result, GGRAHRMAL , pKd: ≤ 4.70

Recorded result, RPAADGKTV , pKd: ≤ 4.70

---

molecular target: HLA-A*02:19; test: IEDB peptide-MHC binding, purified MHC/direct/fluorescence; filed as Kd, often an IC50 or EC50 that approximates it; bounds were set here for any values at or beyond the usual limits of such assays; conditions: source organism: Zaire ebolavirus
READOUT: Kd

KRLQILGYL ≥ 20 µM
KTNDFAPAW ≥ 20 µM

Read the next record carefully.
Recorded result, KCNPNLHYW , Kd: ≥ 20 µM
